System: p53 signaling (p53RE-bla HCT-116 cells)
measurement_protocol: cells
reported_conditions: Homo sapiens, HCT-116, read-out: p53 activation EC50, RLM
Label key: true (1) means EC50 under 9 µM; false (0) means EC50 of 9 µM or more.

CCOP(=O)(NC(C)C)Oc1ccc(SC)c(C)c1 (stereo not shown) [Fenamiphos] = true (1)
CCOC(=O)c1cn2nc(OP(=S)(OCC)OCC)cc2nc1C [Pyrazophos] = true (1)
CCOP(=S)(OCC)O/N=C(\C#N)c1ccccc1 [Phoxim] = true (1)
CNC(=O)Oc1ccccc1C(C)C [Isoprocarb] = false (0)
COP(=S)(OC)Oc1ccc(S(=O)(=O)N(C)C)cc1 [Famphur] = true (1)
CCOP(=S)(OCC)Oc1nc(Cl)c(Cl)cc1Cl [Chlorpyrifos] = true (1)
Oc1c(Cl)cc(Cl)c(Cl)c1Cl [2,3,4,6-Tetrachlorophenol] = false (0)
COP(N)(=O)SC (stereo not shown) [Methamidophos] = false (0)
CCOP(=O)(OCC)OC(=CCl)c1ccc(Cl)cc1Cl [Chlorfenvinphos] = true (1)
Nc1nc(N)c2nc(-c3ccccc3)c(N)nc2n1 [Triamterene] = false (0)
CNC(=O)O/N=C(\SC)C(=O)N(C)C [Oxamyl] = false (0)
CCOP(=S)(OCC)SCCSCC [Disulfoton] = true (1)

Values were extracted from paper PMC9151520.
